METHOD_NOTES: total protein half-life in vivo (active degradation + dilution); higher = more stable protein
STUDY_CONDITIONS: wild type E. coli NCM3722; growth: N-lim chemostat; doubling time 12 h
Threshold rule: total protein half-life in vivo greater than or equal to 7 h is 1; below that, 0.

| ORDERED_RESIDUES | CLASS_NAME |
| --- | --- |
| MQTEHVILLNAQGVPTGTLEKYAAHTADTRLHLAFSSWLFNAKGQLLVTRRALSKKAWPGVWTNSVCGHPQLGESNEDAVIRRCRYELGVEITPPESIYPDFRYRATDPSGIVENEVCPVFAARTTSALQINDDEVMDYQWCDLADVLHGIDATPWAFSPWMVMQATNREARKRLSAFTQLK | 1 |

# check: total protein half-life in vivo of MVKLAFPRELRLLTPSQFTFVFQQPQRAGTPQITILGRLNSLGHPRIGLTVAKKNVRRAHERNRIKRLTRESFRLRQHELPAMDFVVVAKKGVADLDNRALSEALEKLWRRHCRLARGS [P0A7Y8] is greater than or equal to 7 h 1

Is it the case that `MRLFNWRRQAVLNAMPLVKPDQVRTPWHEFWRRFRRQHMAMTAALFVILLIVVAIFARWIAPYDAENYFDYDNLNNGPSLQHWFGVDSLGRDIFSRVLVGAQISLAAGVFAVFIGAAIGTLLGLLAGYYEGWWDRLIMRICDVLFAFPGILLAIAVVAVLGSGIANVIIAVAIFSIPAFARLVRGNTLVLKQQTFIESARSIGASDMTVLLRHILPGTVSSIVVFFTMRIGTSIISAASLSFLGLGAQPPTPEWGAMLNEARADMVIAPHVAVFPALAIFLTVLAFNLLGDGLRDALDPKIKG` has total protein half-life in vivo reaching or exceeding 7 h? 1

Given MENNEIQSVLMNALSLQEVHVSGDGSHFQVIAVGELFDGMSRVKKQQTVYGPLMEYIADNRIHAVSIKAYTPAEWARDRKLNGF [P0A9W6] , state whether its total protein half-life in vivo is at least 7 h. 1

Decide: total protein half-life in vivo of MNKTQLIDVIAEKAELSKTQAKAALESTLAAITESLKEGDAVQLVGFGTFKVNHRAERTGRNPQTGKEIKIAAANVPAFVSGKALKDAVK [P0ACF0] >= 7 h? 1

Determine whether this sequence has total protein half-life in vivo no lower than 7 h: `MDLRRFITLKTVVEEGSFLRASQKLCCTQSTVTFHIQQLEQEFSVQLFEKIGRRMCLTREGKKLLPHIYELTRVMDTLREAAKKESDPDGELRVVSGETLLSYRMPQVLQRFRQRAPKVRLSLQSLNCYVIRDALLNDEADVGVFYRVGNDDALNRRELGEQSLVLVASPQIADVDFTEPGRHNACSFIINEPQCVFRQIFESTLRQRRITVENTIELISIESIKRCVAANIGVSYLPRFAVAKELECGELIELPFGEQSQTITAMCAHHAGKAVSPAMHTFIQCVEESFVAG` 0
